pKi: −log10 of the molar value.
Record: pKi reported on UniProt:Q5BJF2.
Sequence (Q5BJF2 whole entry, species assumed): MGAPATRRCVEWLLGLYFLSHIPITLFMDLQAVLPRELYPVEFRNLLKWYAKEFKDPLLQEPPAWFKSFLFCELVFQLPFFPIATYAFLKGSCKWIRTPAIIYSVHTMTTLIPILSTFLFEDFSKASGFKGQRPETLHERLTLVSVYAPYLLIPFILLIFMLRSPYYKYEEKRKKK

compound="CCCCS(=O)(=NC(C)=O)c1ccc2c(c1)CN(C(C)(C)CCc1ccc(O)c(OC(C)(C)C)c1)C2 (stereo not shown)" recorded_measurement="< 6.30"
compound="CC(=O)N=S(=O)(CF)c1ccc2c(c1)CN(C(C)(C)CCc1ccc(O)c(OC(C)(C)C)c1)C2 (stereo not shown)" recorded_measurement="< 7.00"
compound="CCCCS(=O)(=NC(=O)CC)c1ccc2c(c1)CN(C(C)(C)CCc1ccc(O)c(OC(C)(C)C)c1)C2 (stereo not shown)" recorded_measurement="< 6.30"
compound="CC(=O)N=S(=O)(CCCF)c1ccc2c(c1)CN(C(C)(C)CCc1ccc(O)c(OC(C)(C)C)c1)C2 (stereo not shown)" recorded_measurement="< 6.30"
compound="CCCS(=N)(=O)c1ccc2c(c1)CN(C(C)(C)CCc1ccc(O)c(OC(C)(C)C)c1)C2 (stereo not shown)" recorded_measurement="< 6.30"

Go through the items and report each one's pKi.
1. CCS(=N)(=O)c1ccc2c(c1)CN(C(C)(C)CCc1ccc(O)c(OC(C)(C)C)c1)C2 (stereo not shown)
2. CCC(=O)N=S(=O)(CC)c1ccc2c(c1)CN(C(C)(C)CCc1ccc(O)c(OC(C)(C)C)c1)C2 (stereo not shown)

> 7.00
< 7.00
